B1: OAS1 (parent)
chain: LTVYAWERGSMKTHFNTAQGFRTV

Variants of: B1
Assay: protein stability index of a GFP-peptide fusion (GPS, HEK-293T) (PSI 1-6); higher = more stable;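 also: lentivirally expressed fusions sorted by FACS into six bins by GFP to DsRed ratio, PSI derived from sequencing read proportions per bin multiplied by bin number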
Conditions: c terminus: a fixed tail appended
parameter: protein stability index
Reply briefly: the number, and no unit.

Note to self: protein stability index recorded for "V3G" was 1.91

Note to self: protein stability index recorded for "T23N" was 3.21

Note to self: protein stability index recorded for "A18D" was 4.02

Note to self: protein stability index recorded for "K12N" was 2.66

Note to self: protein stability index recorded for "Q19F" was 3.35

Note to self: protein stability index recorded for "T17S" was 3.12

Note to self: protein stability index recorded for "V24H" was 1.61

Note to self: protein stability index recorded for "G20F" was 2.39

Note to self: protein stability index recorded for "A5N" was 2.29

Note to self: protein stability index recorded for "T13K" was 1.51

Note to self: protein stability index recorded for "A18T" was 2.39
